Answer each item with its documented pIC50.
- Measured On: Subtilisin-like protease 1 (Plasmodium falciparum)
- Sequence (O61142 whole entry): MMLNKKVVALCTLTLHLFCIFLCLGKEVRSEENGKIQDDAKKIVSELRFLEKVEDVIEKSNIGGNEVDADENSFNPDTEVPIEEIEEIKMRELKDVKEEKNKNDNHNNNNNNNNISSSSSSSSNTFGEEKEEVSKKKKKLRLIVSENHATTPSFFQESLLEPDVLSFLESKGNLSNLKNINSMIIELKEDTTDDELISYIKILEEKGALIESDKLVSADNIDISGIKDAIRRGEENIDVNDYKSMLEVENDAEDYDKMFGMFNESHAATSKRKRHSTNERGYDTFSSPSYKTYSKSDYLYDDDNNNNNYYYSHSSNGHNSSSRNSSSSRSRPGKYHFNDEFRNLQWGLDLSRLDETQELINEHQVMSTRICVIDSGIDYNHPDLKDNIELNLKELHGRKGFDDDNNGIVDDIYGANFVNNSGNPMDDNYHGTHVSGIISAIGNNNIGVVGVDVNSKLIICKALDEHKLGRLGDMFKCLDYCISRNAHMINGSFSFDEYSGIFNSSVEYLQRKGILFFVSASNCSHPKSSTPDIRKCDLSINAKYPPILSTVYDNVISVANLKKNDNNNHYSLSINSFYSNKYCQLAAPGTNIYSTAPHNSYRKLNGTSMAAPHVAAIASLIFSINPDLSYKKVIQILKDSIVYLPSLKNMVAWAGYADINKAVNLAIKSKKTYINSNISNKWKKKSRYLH
Starred links: 1 amine or outer side, 2 acyl side, 3 side chain; linkers in the order of their positions; H or OH if unused. Non-standard residues stand in square brackets, D forms with d. Residues, ends and D or L forms follow the SMILES beside them. *: point of attachment. X1 = C[C@H](N[*:1])C(=O)C(F)(F)C(=O)[*:2]; Cbz = O=C(OCc1ccccc1)*; OBn = c1ccc(CO*)cc1; Bn = c1ccc(C*)cc1
Answers are plain numbers, as −log10 of the molar value.

Please review the following examples before continuing.
[
  {
    "Compound": "CC[C@H](C)[C@H](NC(=O)[C@H](CCCCN)NC(C)=O)C(=O)N[C@H](C(=O)N[C@@H](C)C(=O)N[C@@H](C)C(=O)C(F)(F)C(=O)NCCC(=O)O)[C@@H](C)O (HELM PEPTIDE1{[ac].K.I.T.A.[C[C@H](N[*:1])C(=O)C(F)(F)C(=O)[*:2]].[bAla]}$$$$V2.0)",
    "Assay Value": 4.22
  },
  {
    "Compound": "CC[C@H](C)[C@H](NC(C)=O)C(=O)N[C@H](C(=O)N[C@@H](C)C(=O)N[C@@H](C)C(=O)C(F)(F)C(=O)NCC(=O)O)[C@@H](C)O (HELM PEPTIDE1{[ac].I.T.A.[C[C@H](N[*:1])C(=O)C(F)(F)C(=O)[*:2]].G}$$$$V2.0)",
    "Assay Value": 6.22
  }
]

Lab note: each compound below needs its pIC50 filled in.
1. CC[C@H](C)[C@H](NC(C)=O)C(=O)N[C@H](C(=O)N[C@@H](C)C(=O)N[C@@H](C)C(=O)C(F)(F)C(=O)NCC(=O)OCc1ccccc1)[C@@H](C)OCc1ccccc1 (Ac-IT(Bn)A[X1]G-OBn)
2. CC[C@H](C)[C@H](NC(=O)[C@H](CCCCNC(=O)OCc1ccccc1)NC(C)=O)C(=O)N[C@H](C(=O)N[C@@H](C)C(=O)N[C@@H](C)C(=O)C(F)(F)C(=O)NCC(=O)OCc1ccccc1)[C@@H](C)OCc1ccccc1 (Ac-K(Cbz)IT(Bn)A[X1]G-OBn)
3. CC[C@H](C)[C@H](NC(=O)[C@H](CCCCN)NC(C)=O)C(=O)N[C@H](C(=O)N[C@@H](C)C(=O)N[C@@H](C)C(=O)C(F)(F)C(=O)NCC(=O)O)[C@@H](C)O (HELM PEPTIDE1{[ac].K.I.T.A.[C[C@H](N[*:1])C(=O)C(F)(F)C(=O)[*:2]].G}$$$$V2.0)

Out:
4.48
5.30
6.22

The reported numbers originate from ChEMBL document CHEMBL3352427.
